Each entry below lists one item and its recorded PBM binding z-score value.
tested on: LXRb:RXRa (NR concentration 270 nM, RXRa partner concentration 90 nM); assay: PBM binding z-score (relative to random genomic background probes); higher = stronger binding; sequences stand for … in GC…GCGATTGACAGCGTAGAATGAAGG

Inquiry: Please give the measured PBM binding z-score for this sequence: ATAACAAGGTGATCGTGAGGTCGTTGATACTAAC
Reply text: 1.1

Inquiry: Follow-up entry: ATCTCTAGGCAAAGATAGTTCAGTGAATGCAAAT
Reply text: -0.207

Inquiry: Follow-up entry: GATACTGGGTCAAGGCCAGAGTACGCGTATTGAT
Reply text: 1.22

Inquiry: Follow-up entry: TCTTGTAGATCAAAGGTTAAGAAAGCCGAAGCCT
Reply text: 2.14

Inquiry: Follow-up entry: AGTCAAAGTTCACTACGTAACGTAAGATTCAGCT
Reply text: 3.23

Inquiry: Follow-up entry: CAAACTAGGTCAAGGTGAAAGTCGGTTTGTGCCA
Reply text: 1.93
